Value source: patent EP0927179B1

// reported pIC50 for each item listed
ASSAY_TARGET: farnesyl protein transferase (Homo sapiens, UniProt P49354+P49356)
Sequence (P49356 whole entry, one chain of several): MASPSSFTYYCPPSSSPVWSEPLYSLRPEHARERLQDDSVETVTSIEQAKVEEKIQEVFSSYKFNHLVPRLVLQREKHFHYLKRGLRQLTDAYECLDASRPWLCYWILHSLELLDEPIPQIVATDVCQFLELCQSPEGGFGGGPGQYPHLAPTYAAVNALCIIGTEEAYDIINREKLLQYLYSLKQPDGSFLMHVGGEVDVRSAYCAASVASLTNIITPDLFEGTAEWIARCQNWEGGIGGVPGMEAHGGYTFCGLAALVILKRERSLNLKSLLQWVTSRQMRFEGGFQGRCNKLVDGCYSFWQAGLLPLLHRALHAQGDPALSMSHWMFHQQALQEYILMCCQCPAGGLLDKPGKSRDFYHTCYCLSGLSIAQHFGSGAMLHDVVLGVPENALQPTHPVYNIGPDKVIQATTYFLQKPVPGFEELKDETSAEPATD
ASSAY_PROTOCOL: FPT IC50 (K-ras), inhibition of farnesyl protein transferase, in vitro enzyme assay
Format: biochemical
Units for pIC50: none; it is -log10 of a concentration expressed in mol/L.

CN(C)S(=O)(=O)N1CCC(CC(=O)N2CCC([C@H]3c4ncc(Br)cc4CCc4cc(Cl)cc(Br)c43)CC2)CC1; 8.00

The record that follows has no pIC50 shown yet.
Query Cn1cnc(S(=O)(=O)N2CCC(CC(=O)N3CCC([C@H]4c5ncc(Br)cc5CCc5cc(Cl)cc(Br)c54)CC3)CC2)c1 yields pIC50 of 7.64

* * *

// reported log10 of IC50 for each item listed
ASSAY_TARGET: farnesyl protein transferase (Homo sapiens, UniProt P49354+P49356)
ASSAY_PROTOCOL: FPT IC50 (H-ras), inhibition of farnesyl protein transferase, in vitro enzyme assay
Format: biochemical
Values below are the log10 of the recorded IC50, with nM as the unit.

Sample records with log10 of IC50:
O=C(CC1CCN(S(=O)(=O)c2cccs2)CC1)N1CCC([C@H]2c3ncc(Br)cc3CCc3cc(Cl)cc(Br)c32)CC1 [Example 13]; 1.30
CN(C)S(=O)(=O)N1CCC(CC(=O)N2CCC([C@H]3c4ncc(Br)cc4CCc4cc(Cl)cc(Br)c43)CC2)CC1 [Example 3]; 0.86

Query CC1(C)C2CCC1(CS(=O)(=O)N1CCC(CC(=O)N3CCC([C@H]4c5ncc(Br)cc5CCc5cc(Cl)cc(Br)c54)CC3)CC1)C(=O)C2 (stereo partly shown) [Example 11] yields log10 of IC50 of 1.54

Query NS(=O)(=O)N1CCC(CC(=O)N2CCN(C3c4ccc(Cl)cc4CCc4cc(Br)cnc43)CC2)CC1 (stereo not shown) [Example 16] yields log10 of IC50 of 1.90

Query Cn1cnc(S(=O)(=O)N2CCC(CC(=O)N3CCC([C@H]4c5ncc(Br)cc5CCc5cc(Cl)cc(Br)c54)CC3)CC2)c1 [Example 14] yields log10 of IC50 of 0.76

Query CS(=O)(=O)N1CCC(CC(=O)N2CCN(C3c4ccc(Cl)cc4CCc4cc(Br)cnc43)CC2)CC1 (stereo not shown) [Example 15] yields log10 of IC50 of 1.73

Query O=C(CC1CCN(S(=O)(=O)c2ccccc2)CC1)N1CCC([C@H]2c3ncc(Br)cc3CCc3cc(Cl)cc(Br)c32)CC1 [Example 1] yields log10 of IC50 of 1.86
